B1: library; a variant is named by its letters at N, in order (parent)
chain: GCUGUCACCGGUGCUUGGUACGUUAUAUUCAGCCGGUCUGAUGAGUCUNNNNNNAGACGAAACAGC

Variants of: B1
Experiment: normalized RNA/DNA level with ligand (relative to sTRSVctl = 100) (log10 (% of sTRSVctl)); HEK293T overexpressing SLC46A1; ligand concentration (+) RNA-Seq: 6 mM; higher = less ribozyme self-cleavage, higher mRNA level
Settings: with (6R,S)-folinic acid; ligand present: yes
Field: normalized RNA/DNA level with ligand (log10). Provide a value for each of the variants that follow.
Number only, please.

Briefly, normalized RNA/DNA level with ligand (log10) measured for `CUUAGU` : 2.01

Briefly, normalized RNA/DNA level with ligand (log10) measured for `GUGAUA` : 2

Briefly, normalized RNA/DNA level with ligand (log10) measured for `CGUUCG` : 2.04

Briefly, normalized RNA/DNA level with ligand (log10) measured for `UGGCGG` : 1.99

Briefly, normalized RNA/DNA level with ligand (log10) measured for `UUCGCU` : 1.99

Briefly, normalized RNA/DNA level with ligand (log10) measured for `GAGGUU` : 2

Briefly, normalized RNA/DNA level with ligand (log10) measured for `AGAUGA` : 2.02
